Exercise: for every item that follows, state its recorded Kd.
Target: T1, EsCas13d, nuclease-dead (Eubacterium siraeum, UniProt B0MS50, R295A;H300A;R849A;H854A)
T1 sequence: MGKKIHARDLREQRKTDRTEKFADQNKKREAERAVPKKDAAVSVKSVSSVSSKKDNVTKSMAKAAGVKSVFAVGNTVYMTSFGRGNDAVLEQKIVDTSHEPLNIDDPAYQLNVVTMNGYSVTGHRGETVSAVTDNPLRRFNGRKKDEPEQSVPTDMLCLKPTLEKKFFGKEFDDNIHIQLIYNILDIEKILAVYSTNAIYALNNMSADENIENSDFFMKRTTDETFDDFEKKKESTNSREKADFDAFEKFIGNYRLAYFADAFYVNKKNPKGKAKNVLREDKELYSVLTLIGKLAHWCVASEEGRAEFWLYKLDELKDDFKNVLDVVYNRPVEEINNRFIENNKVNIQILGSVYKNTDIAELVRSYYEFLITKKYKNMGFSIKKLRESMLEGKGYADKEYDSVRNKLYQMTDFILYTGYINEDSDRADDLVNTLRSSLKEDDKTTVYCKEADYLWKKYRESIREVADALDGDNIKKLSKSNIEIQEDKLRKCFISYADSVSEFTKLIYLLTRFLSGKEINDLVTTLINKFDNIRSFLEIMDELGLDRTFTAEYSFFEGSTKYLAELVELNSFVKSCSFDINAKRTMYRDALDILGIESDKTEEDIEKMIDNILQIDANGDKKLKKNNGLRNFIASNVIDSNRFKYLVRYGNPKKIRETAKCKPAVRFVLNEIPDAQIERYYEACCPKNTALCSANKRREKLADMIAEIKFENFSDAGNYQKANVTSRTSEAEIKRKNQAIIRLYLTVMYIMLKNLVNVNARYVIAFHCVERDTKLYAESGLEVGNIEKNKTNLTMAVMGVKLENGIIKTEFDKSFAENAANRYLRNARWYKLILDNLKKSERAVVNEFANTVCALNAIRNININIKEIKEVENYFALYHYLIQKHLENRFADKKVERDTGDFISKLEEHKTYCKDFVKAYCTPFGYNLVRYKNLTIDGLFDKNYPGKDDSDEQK
Assay: crRNA (strand 1, pre-loaded); Mg2+; 40 mM Tris-HCl pH 7.5, 150 mM NaCl, 6 mM MgCl2, 1 mM DTT, 0.1% Tween-20, 0.2 mg/ml BSA; 25 C; 10 min per concentration, then washed
Conditions: tags: His6-TwinStrep-SUMO cleaved; N-terminal SNAP kept (SNAP-Surface 488); label: 3' end held by stalled T7 RNA polymerase
Numbers only, in nM.

Example binders with recorded Kd:
Provide only the value of recorded Kd for target 1 insC 3' of 15,insU 3' of 2 (mixed) RNA 1: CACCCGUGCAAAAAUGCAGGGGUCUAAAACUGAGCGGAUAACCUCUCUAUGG RNA 2: GGGAAUGGAUCCACAUCUACGAAUUCGUACCAUAGAGCAGGUUAUCCGCUCUACCGAGAUCGGAAGAGCACACGU
20.5

Provide only the value of recorded Kd for target 3 insU 3' of 11,insU 3' of 6 (mixed) RNA 1: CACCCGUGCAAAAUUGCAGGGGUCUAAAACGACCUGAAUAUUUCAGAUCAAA RNA 2: GGGAAUGGAUCCACAUCUACGAAUUCGUUUUUGAUCUGAAAUUAUUCUAGGUCUGCAGAUCGGAAGAGCACACGU
95

Go through the list and state Kd for each entry.
1. target 1 insG 3' of 4,insU 3' of 2 (mixed) RNA 1: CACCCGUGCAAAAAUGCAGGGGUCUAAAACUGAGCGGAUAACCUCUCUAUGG RNA 2: GGGAAUGGAUCCACAUCUACGAAUUCGUACCAUAGAGAGGUUAUCCGCGUCUACCGAGAUCGGAAGAGCACACGU
2. target 2 MT 5'PFS GUA 3'PFS UUU (mixed) RNA 1: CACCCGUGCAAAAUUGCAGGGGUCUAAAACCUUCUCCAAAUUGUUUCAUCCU RNA 2: GGGAAUGGAUCCACAUCUACGAAUUCGUAAGGAUGAAACAAUUUGGAGAAGUUUAGAUCGGAAGAGCACACGU
3. target 2 MT 5'PFS GUG 3'PFS UGC (mixed) RNA 1: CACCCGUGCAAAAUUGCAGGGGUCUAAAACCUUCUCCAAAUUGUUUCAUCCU RNA 2: GGGAAUGGAUCCACAUCUACGAAUUCGUGAGGAUGAAACAAUUUGGAGAAGUGCAGAUCGGAAGAGCACACGU
4. target 1 insU 3' of 15,insC 3' of 15 (mixed) RNA 1: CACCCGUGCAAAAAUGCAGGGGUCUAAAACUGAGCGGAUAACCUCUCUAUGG RNA 2: GGGAAUGGAUCCACAUCUACGAAUUCGUACCAUAGAGUCAGGUUAUCCGCUCACCGAGAUCGGAAGAGCACACGU

1. 8.5
2. 62
3. 17.1
4. 28.4
